The following molecules are listed with their measured Xenograft-to-liver ratio values.
Tested on: HEK-uPAR xenograft-bearing nude mice
Experiment: Biodistribution studies in HEK-uPAR xenograft-bearing nude mice
Settings: 4 h p.i.; average ± SD, n=3 animals
Lab note: jot the number down without any unit.

Reference set, count: 3
MOLECULE	Xenograft-to-liver ratio
CC(C)C[C@H](NC(=O)[C@H](Cc1ccc(O)cc1)NC(=O)[C@@H](CCCNC(=N)N)NC(=O)[C@@H](CO)NC(=O)[C@H](Cc1ccccc1)NC(=O)[C@H](CC1CCCCC1)NC(=O)[C@H](CC(=O)O)NC(=O)CCOCCOCCOCCOCCNC(=O)[C@H](CCCCNC(=O)CCCc1ccc(I)cc1)NC(=O)CN1CCN(CC(=O)O)CCN(CC(=O)O)CCN(CC(=O)O)CC1)C(=O)N[C@@H](Cc1c[nH]c2ccccc12)C(=O)N[C@@H](CO)C(N)=O [[^177Lu]Lu-uPAR-05, metal not drawn]	0.98
CC(C)C[C@H](NC(=O)[C@H](Cc1ccc(O)cc1)NC(=O)[C@@H](CCCNC(=N)N)NC(=O)[C@@H](CO)NC(=O)[C@H](Cc1ccccc1)NC(=O)[C@H](CC1CCCCC1)NC(=O)[C@H](CC(=O)O)NC(=O)[C@H](CCCCNC(=O)CCCc1ccc(I)cc1)NC(=O)[C@@H](N)CCCCNC(=O)CN1CCN(CC(=O)O)CCN(CC(=O)O)CCN(CC(=O)O)CC1)C(=O)N[C@@H](Cc1c[nH]c2ccccc12)C(=O)N[C@@H](CO)C(N)=O [[^177Lu]Lu-uPAR-04, metal not drawn]	0.93
CC(C)C[C@H](NC(=O)[C@H](Cc1ccc(O)cc1)NC(=O)[C@@H](CCCNC(=N)N)NC(=O)[C@@H](CO)NC(=O)[C@H](Cc1ccccc1)NC(=O)[C@H](CC1CCCCC1)NC(=O)[C@H](CC(=O)O)NC(=O)CN1CCN(CC(=O)O)CCN(CC(=O)O)CCN(CC(=O)O)CC1)C(=O)N[C@@H](Cc1c[nH]c2ccccc12)C(=O)N[C@@H](CO)C(N)=O [[^177Lu]Lu-DOTA-AE105, metal not drawn, reference compound]	8.6

Proceed to the following item.
Q) State the recorded Xenograft-to-liver ratio for this entry: CC(C)C[C@H](NC(=O)[C@H](Cc1ccc(O)cc1)NC(=O)[C@@H](CCCNC(=N)N)NC(=O)[C@@H](CO)NC(=O)[C@H](Cc1ccccc1)NC(=O)[C@H](CC1CCCCC1)NC(=O)[C@H](CC(=O)O)NC(=O)[C@H](CCCCNC(=O)CCCc1ccc(I)cc1)NC(=O)CN1CCN(CC(=O)O)CCN(CC(=O)O)CCN(CC(=O)O)CC1)C(=O)N[C@@H](Cc1c[nH]c2ccccc12)C(=O)N[C@@H](CO)C(N)=O [[^177Lu]Lu-uPAR-01, metal not drawn]
A) 1.4

###

Test: Biodistribution studies in HEK-uPAR xenograft-bearing nude mice
Details: female, CD1/nude, mouse, HEK-uPAR xenograft, 5 MBq (0.5 nmol), total radioactivity, HEK-uPAR xgft, 4 h p.i.; 5 MBq, 0.5 nmol; decay-corrected; average ± SD, n=3 animals
RECORDED_METRIC: tissue uptake at 4 h (%ID/g)
The figure you give is taken to be in %ID/g; do not add the unit.

Use the examples below as a reference point.
MOLECULE	UNIT_ABBREVIATION	NUMBER
CC(C)C[C@H](NC(=O)[C@H](Cc1ccc(O)cc1)NC(=O)[C@@H](CCCNC(=N)N)NC(=O)[C@@H](CO)NC(=O)[C@H](Cc1ccccc1)NC(=O)[C@H](CC1CCCCC1)NC(=O)[C@H](CC(=O)O)NC(=O)CCOCCOCCOCCOCCNC(=O)[C@H](CCCCNC(=O)CCCc1ccc(I)cc1)NC(=O)CN1CCN(CC(=O)O)CCN(CC(=O)O)CCN(CC(=O)O)CC1)C(=O)N[C@@H](Cc1c[nH]c2ccccc12)C(=O)N[C@@H](CO)C(N)=O [[^177Lu]Lu-uPAR-05, metal not drawn]	%ID/g	5.1
CC(C)C[C@H](NC(=O)[C@H](Cc1ccc(O)cc1)NC(=O)[C@@H](CCCNC(=N)N)NC(=O)[C@@H](CO)NC(=O)[C@H](Cc1ccccc1)NC(=O)[C@H](CC1CCCCC1)NC(=O)[C@H](CC(=O)O)NC(=O)[C@H](CCCCNC(=O)CCCc1ccc(I)cc1)NC(=O)[C@@H](N)CCCCNC(=O)CN1CCN(CC(=O)O)CCN(CC(=O)O)CCN(CC(=O)O)CC1)C(=O)N[C@@H](Cc1c[nH]c2ccccc12)C(=O)N[C@@H](CO)C(N)=O [[^177Lu]Lu-uPAR-04, metal not drawn]	%ID/g	3.6

Please turn your attention to the following entry.
Q) Fill blank: measured tissue uptake at 4 h of the molecule CC(C)C[C@H](NC(=O)[C@H](Cc1ccc(O)cc1)NC(=O)[C@@H](CCCNC(=N)N)NC(=O)[C@@H](CO)NC(=O)[C@H](Cc1ccccc1)NC(=O)[C@H](CC1CCCCC1)NC(=O)[C@H](CC(=O)O)NC(=O)[C@H](CCCCNC(=O)CCCc1ccc(I)cc1)NC(=O)CN1CCN(CC(=O)O)CCN(CC(=O)O)CCN(CC(=O)O)CC1)C(=O)N[C@@H](Cc1c[nH]c2ccccc12)C(=O)N[C@@H](CO)C(N)=O [[^177Lu]Lu-uPAR-01, metal not drawn] is ____.
A) 9.2
